Biological target: KRAS G12C Ba/F3 (Homo sapiens, UniProt P01116, G12C, cells depend on it)
Sequence (P01116 whole entry G12C): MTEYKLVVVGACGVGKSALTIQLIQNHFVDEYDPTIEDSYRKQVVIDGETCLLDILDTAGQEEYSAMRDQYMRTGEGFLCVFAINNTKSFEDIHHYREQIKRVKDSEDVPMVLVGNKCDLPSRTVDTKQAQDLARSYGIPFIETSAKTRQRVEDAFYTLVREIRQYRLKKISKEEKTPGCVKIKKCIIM
Assay: Ba/F3 proliferation assay, KRAS G12C
Format: cell-based
Settings: 72 h, AlamarBlue, read-out: KRAS G12C Ba/F3 IC50
Description: Plasmids containing KRASG12 mutants(i.e. G12D, G12C, G12V) are obtained from GeneScript. To generate KRASG12-dependent Ba/F3 models, Ba/F3 cells are transduced with retroviruses containing vectors that harbor KRASG12 isoforms. […] Compounds are added using an Access Labcyte Workstation with a Labcyte Echo 550 or 555 accoustic dispenser. […] AlamarBlue™ (ThermoFisher), a viability stain, is added and fluorescence measured in the PerkinElmer Envision HTS Multilabel Reader. […]
RECORDED_METRIC: GI50 (nM)

Example results:
C[C@H](Oc1cc(Oc2cncnc2)nc(-c2noc3c2CCC[C@@]32CCCc3sc(N)c(C#N)c32)n1)[C@@H]1CCCN1C; 4
C[C@H](Oc1cc(Nc2cnccn2)nc(-c2noc3c2CCC[C@@]32CCCc3sc(N)c(C#N)c32)n1)[C@@H]1CCCN1C; 15

[P] C[C@H](Oc1cc(Oc2nccs2)nc(-c2onc3c2CCC[C@@]32CCCc3sc(N)c(C#N)c32)n1)[C@@H]1CCCN1C
[Q] C[C@H](Oc1cc(Nc2ncco2)nc(-c2noc3c2CCC[C@@]32CCCc3sc(N)c(C#N)c32)n1)[C@@H]1CCCN1C
# input Consider P and Q . Which of these has its GI50 at a higher number? Refer to your chosen entry by its label in the reply.
# output Q
(Q: 17 nM, P: 4 nM)
